# Tested on: SK-BR-3
# Run description: normalised response (% of control), CellTiter-Glo; higher = more viable cells (100 = DMSO, 0 = benzethonium chloride kill control)
# Applied conditions: incubation time: 72 h
# Lookup of reported normalised response keyed by entry
Returns: string containing the number followed by the unit.

Compound: CC(C)(C)c1cnc(CSc2cnc(NC(=O)C3CCNCC3)s2)o1 [SNS-032] (100 nM)
normalised response: 33.1%
--
Compound: O=C1CN2Cc3c(ccc(Cl)c3Cl)N=C2N1 [Anagrelide] (100 nM)
normalised response: 103%
--
Compound: Cc1ccc([N+](=O)[O-])cc1S(=O)(=O)N(C)/N=C/c1cnc2ccc(Br)cn12 [PIK-75] (100 nM)
normalised response: 19.3%
--
Compound: CC1(C)CCC(CN2CCN(c3ccc(C(=O)NS(=O)(=O)c4ccc(NCC5CCOCC5)c([N+](=O)[O-])c4)c(Oc4cnc5[nH]ccc5c4)c3)CC2)=C(c2ccc(Cl)cc2)C1 [ABT-199] (100 nM)
normalised response: 101%
--
Compound: Cn1cnc2c(F)c(Nc3ccc(Br)cc3Cl)c(C(=O)NOCCO)cc21 [Selumetinib] (100 nM)
normalised response: 91%
--
Compound: C[C@]12CC[C@@H]3c4ccc(OC(=O)N(CCCl)CCCl)cc4CC[C@H]3[C@@H]1CC[C@@H]2O [Estramustine] (100 nM)
normalised response: 85.3%

Shifting focus to the compound that follows.
Give normalised response only, for Oc1ncnc2[nH]ncc12 [Allopurinol] (100 nM) , using SK-BR-3 data.
105%

----------
# Tested on: CAL-85-1
# Run description: normalised viability (% of control), CellTiter-Blue; higher = more viable cells (about 100 = DMSO control)
# Applied conditions: incubation time: 72 h
# Lookup of reported normalised viability keyed by entry
Give the quantity in %, number only.

For orientation, consider the following solved cases.
Compound: CC1=C2C[C@H]3[C@@H](CC=C4C[C@@H](O)CC[C@@]43C)[C@@H]2CC[C@]12O[C@@H]1C[C@H](C)CN[C@H]1[C@H]2C [Cyclopamine] (3000 nM)
Numeric result: 99.7
//
Compound: Nc1ncn([C@@H]2O[C@H](CO)[C@@H](O)[C@H]2O)c(=O)n1 [Azacitidine] (3000 nM)
Numeric result: 93.8
//
Compound: Nc1nc2[nH]cnc2c(=S)[nH]1 [Thioguanine] (3000 nM)
Numeric result: 75.7
//
Compound: O=P(O)(O)C(O)(Cn1ccnc1)P(=O)(O)O [Zoledronic acid] (3000 nM)
Numeric result: 96.8
//
Compound: Cc1sc2c(c1C)C(c1ccc(Cl)cc1)=N[C@@H](CC(=O)OC(C)(C)C)c1nnc(C)n1-2 [(+)JQ1] (3000 nM)
Numeric result: 40.5

Shifting focus to the compound that follows.
Indicate its recorded normalised viability; the compound in question is C[C@]1(O)C[C@@H](c2nc(-c3ccc4ccc(-c5ccccc5)nc4c3)c3c(N)nccn32)C1 [OSI-906] (3000 nM)
85.5

----------
# Lookup of reported drug sensitivity score keyed by entry
# Tested on: MDA-MB-468
# Run description: drug sensitivity score (DSS), CellTiter-Glo (DSS (AUC-based score)); higher = stronger drug effect (viability inhibition or cytotoxicity); extreme values may be limits of the assay
# Applied conditions: incubation time: 72 h
Field format: numeric only.

Compound: Nc1ncn([C@@H]2O[C@H](CO)[C@@H](O)[C@H]2O)c(=O)n1
drug sensitivity score: 12.1

Give drug sensitivity score only, for Cc1sc2c(c1C)C(c1ccc(Cl)cc1)=N[C@@H](CC(=O)OC(C)(C)C)c1nnc(C)n1-2 [(+)JQ1] , using MDA-MB-468 data.
9.62

Give drug sensitivity score only, for Cc1ccc([N+](=O)[O-])cc1S(=O)(=O)N(C)/N=C/c1cnc2ccc(Br)cn12 , using MDA-MB-468 data.
30.2

Give drug sensitivity score only, for CC(=O)N(O)CCCCCNC(=O)CCC(=O)N(O)CCCCCNC(=O)CCC(=O)N(O)CCCCCN , using MDA-MB-468 data.
7.85

----------
# System: DU-4475
# Run description: normalised response (% of control), CellTox Green; higher = less cell death (100 = DMSO, 0 = benzethonium chloride kill control)
# Applied conditions: incubation time: 72 h
Quantity kind: normalised response (%)
Give the quantity in %, number only.

For orientation, consider the following solved cases.
Compound: CC1(C)CCC(CN2CCN(c3ccc(C(=O)NS(=O)(=O)c4ccc(NCC5CCOCC5)c([N+](=O)[O-])c4)c(Oc4cnc5[nH]ccc5c4)c3)CC2)=C(c2ccc(Cl)cc2)C1 [ABT-199] (100 nM)
Units of measure: %
normalised response: 99.3

Compound: Cn1cnc2c(F)c(Nc3ccc(Br)cc3Cl)c(C(=O)NOCCO)cc21 [Selumetinib] (10000 nM)
Units of measure: %
normalised response: 62.3

Compound: Nc1nc2[nH]cnc2c(=S)[nH]1 [Thioguanine] (10000 nM)
Units of measure: %
normalised response: 91.9

Compound: Oc1ncnc2[nH]ncc12 [Allopurinol] (1000 nM)
Units of measure: %
normalised response: 96.8

Shifting focus to the compound that follows.
Indicate its recorded normalised response; the compound in question is Nc1nc2[nH]cnc2c(=S)[nH]1 [Thioguanine] (1000 nM)
104

----------
# Lookup of reported drug sensitivity score keyed by entry
# Tested on: MDA-MB-231
# Run description: drug sensitivity score (DSS), CellTox Green (DSS (AUC-based score)); higher = stronger drug effect (viability inhibition or cytotoxicity); extreme values may be limits of the assay
# Applied conditions: incubation time: 72 h
Field format: numeric only.

Structure: Nc1nc2[nH]cnc2c(=S)[nH]1
Quantity kind: drug sensitivity score
Numeric result: 0
--
Structure: COc1cc(F)c(F)c(Nc2ccc(I)cc2F)c1NS(=O)(=O)C1(C[C@H](O)CO)CC1
Quantity kind: drug sensitivity score
Numeric result: 16.3

Indicate its recorded drug sensitivity score; the compound in question is CC(=O)N(O)CCCCCNC(=O)CCC(=O)N(O)CCCCCNC(=O)CCC(=O)N(O)CCCCCN
0

Indicate its recorded drug sensitivity score; the compound in question is CC1(C)CCC(CN2CCN(c3ccc(C(=O)NS(=O)(=O)c4ccc(NCC5CCOCC5)c([N+](=O)[O-])c4)c(Oc4cnc5[nH]ccc5c4)c3)CC2)=C(c2ccc(Cl)cc2)C1
3.14

Indicate its recorded drug sensitivity score; the compound in question is C[C@]1(O)C[C@@H](c2nc(-c3ccc4ccc(-c5ccccc5)nc4c3)c3c(N)nccn32)C1
4.69

----------
# System: Hs578T
# Run description: normalised response (% of control), CellTox Green; higher = less cell death (100 = DMSO, 0 = benzethonium chloride kill control)
# Applied conditions: incubation time: 72 h
Would you mind labelling by normalised response? At or over 90% is True, under is False.

Compound: C[C@]1(O)C[C@@H](c2nc(-c3ccc4ccc(-c5ccccc5)nc4c3)c3c(N)nccn32)C1 [Linsitinib] (1000 nM)
Class: True
--
Compound: Cc1ccc([N+](=O)[O-])cc1S(=O)(=O)N(C)/N=C/c1cnc2ccc(Br)cn12 [PIK-75] (100 nM)
Class: False
--
Compound: Nc1nc2[nH]cnc2c(=S)[nH]1 [Thioguanine] (1000 nM)
Class: True
--
Compound: Oc1ncnc2[nH]ncc12 [Allopurinol] (100 nM)
Class: True
--
Compound: CC1(C)CCC(CN2CCN(c3ccc(C(=O)NS(=O)(=O)c4ccc(NCC5CCOCC5)c([N+](=O)[O-])c4)c(Oc4cnc5[nH]ccc5c4)c3)CC2)=C(c2ccc(Cl)cc2)C1 [ABT-199] (100 nM)
Class: True
--
Compound: COc1cc2c(cc1O)CC[C@@H]1[C@@H]2CC[C@]2(C)[C@@H](O)CC[C@@H]12 [2-methoxyestradiol] (1000 nM)
Class: False

Could you now look at the following compound, please?
Does CC(=O)N(O)CCCCCNC(=O)CCC(=O)N(O)CCCCCNC(=O)CCC(=O)N(O)CCCCCN [Deferoxamine] (10000 nM) have a reported normalised response of at least 90%?
True

----------
# Lookup of reported normalised viability keyed by entry
# Tested on: CAL-85-1
# Run description: normalised viability (% of control), CellTiter-Blue; higher = more viable cells (about 100 = DMSO control)
# Applied conditions: incubation time: 72 h
Give the quantity in %, number only.

Compound: CC1(C)CNc2cc(NC(=O)c3cccnc3NCc3ccncc3)ccc21 [Motesanib] (10000 nM)
Quantity kind: normalised viability
Numeric result: 78.2

Compound: COc1cc2c(cc1O)CC[C@@H]1[C@@H]2CC[C@]2(C)[C@@H](O)CC[C@@H]12 [2-methoxyestradiol] (10000 nM)
Quantity kind: normalised viability
Numeric result: 57.5

Compound: O=P(O)(O)C(O)(Cn1ccnc1)P(=O)(O)O [Zoledronic acid] (10000 nM)
Quantity kind: normalised viability
Numeric result: 90.4

Compound: C[C@]1(O)C[C@@H](c2nc(-c3ccc4ccc(-c5ccccc5)nc4c3)c3c(N)nccn32)C1 [OSI-906] (10000 nM)
Quantity kind: normalised viability
Numeric result: 67.4

Shifting focus to the compound that follows.
Indicate its recorded normalised viability; the compound in question is Nc1nc2[nH]cnc2c(=S)[nH]1 [Thioguanine] (10000 nM)
61.8
